Test: amyloid nucleation score (Sup35N fusion, yeast selection) (log enrichment); library NNK1; higher = more nucleation; inactive = no reads after selection;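 further: zero at mode of non-aggregating sequences after 7 days selection at 30°C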
Measured Property: amyloid nucleation score
One number for each entry.

Solved entries:
DSLLEIGRSGVNELVGGLAD    -0.422
WKIRKKA    0.155
VRKEKRNCAGLGRTVVWVRG    0.461

Respectfully, I request amyloid nucleation score for each entry included below.
1. TRFLGYWADLSICMPSYGCR
2. SCVFLGSWWRCGWMPGSHVP
3. LRRLNRHFIVTFFNGTRCDF
4. VVELASLEGGHELTNWVNLV
5. DGLKFGFEINPAVRQ

[-0.209, 1.93, 2.1, 0.231, 1.11]

# return amyloid nucleation score for each item in the list
1. NLTWRGSRDTFECYVDGA
2. MLTQPAEAKEARVSFCSLYM

1: -0.186; 2: 1.01

Go through the items and report each one's amyloid nucleation score.
1. LDTIVIVWRNCLRYKFHLCL
2. VRVPLRSKMSNPRLMSRQAA
3. PSGWTFSRGLSCDNVSRLSS
4. HCVTFACC

-0.057
0.089
1.05
0.523

For every record below, what is its amyloid nucleation score?
1. FGLIGTPCERMVSGLEV
2. SGIGSMWSQLKDSV
3. VNMRASSSMLTTVVAFIFPG
4. GFFVNNCLFSILLDFWVSEE
5. MFVRPRESAEHMLGFRVYSG
6. HEFYSVLMGHFVWLQPWETR
7. LMKGTYFIMCNLLAYECLTR
8. QGSCCD

1. -0.806
2. 0.136
3. 6.52
4. 1.24
5. 0.452
6. 0.839
7. 2.78
8. -0.815

Provide reported amyloid nucleation score for each item, in the same order as listed.
1. ASSCLNSRFGCQRFLGYLWL
2. SPEFEEAWDGIKFYCKGANP
3. VQYLMWSFTVAKLVMQDYHG
4. PNTSEWTDWCRVLVEWGQGS

0.33
-1.09
0.835
0.394

###

Experiment: amyloid nucleation score (Sup35N fusion, yeast selection) (log enrichment); library NNK2; higher = more nucleation; inactive = no reads after selection
Each record gets a class by amyloid nucleation score: group 1 (below 0.2), group 2 (0.2 to below 1), group 3 (1 or more)

Study these solved cases before continuing.
GIQGLSLYRLLSPALWSPSG    group 1
DSNRMNVNRTPDGVLGGCGT    group 2
FFTVDRDFLYFPDFSKRVVM    group 1
GTPRFEVNIMFHTVDS    group 3
LRSSKKCYTILYVSYTLK    group 1
ILLVSATHYSQLNKGRPNDL    group 3

Next item in the queue.
The entry to classify is NREANLDDWLGRGQFSMIWW ; which class holds it? group 1

###

So I've got a bunch of substances here, and I need their amyloid nucleation score values.
Assay: amyloid nucleation score (Sup35N fusion, yeast selection) (log enrichment); library NNK1; higher = more nucleation; inactive = no reads after selection
Numbers only.

NWTIHVDNSGHVIRINTHYW    6.72
VPYVRMNVR    2.24
VLIKLCGYTILIRFGRFLCR    -0.203

Provide each entry's amyloid nucleation score from the list below.
1. TTFTRVTLICSPPVQAKLGR
2. ISIIVVKFDMLLSNHHNSDA
3. GSTFVGAIKQPIVCWIESGN
4. FRRLMLWSCSV
5. MVTGTSHPLQYMLSGSSTKY
6. VTCRCYSFSLMAGAMTRRSG
7. ICTFVMKLTAFVIIVLVFFH

1. 0.399
2. 0.486
3. -1.32
4. -0.098
5. -0.436
6. 0.188
7. -0.125

Batch request: amyloid nucleation score for each of the following substances.
1. CSLTCVSWHMGSF
2. GWCFVSRDLVNYLMCVTAGV
3. RDPVLDVGLRCMWHNGGPFG
4. GGFFRHGEIDMYRCSSEWFL
5. LKVTCFRTYANFGRYDILVF
6. SNFCDSDLYLFRNWPYYWHS
7. TCVSYTP

1: 2.15; 2: -1.02; 3: -0.035; 4: 0.77; 5: 0.096; 6: -0.434; 7: 1.75

Could you tell me amyloid nucleation score for each of these substances? They are listed below.
1. AFVEVFHQGLLRSAMSQMVS
2. TWQFCDVRL

-0.378
-0.064

###

Could you please report measured amyloid nucleation score for the items listed next?
Assay: amyloid nucleation score (Sup35N fusion, yeast selection) (log enrichment); library NNK1; higher = more nucleation; inactive = no reads after selection
Answers are plain numbers.

Some substances with recorded amyloid nucleation score:
WVTSSAFEE    0.277
VWRSFKSMHSHRSNSNALWL    1.96
EMRLCRPCREYLLKSPT    0.31
VCYCLKWEAMSVKLLCMGCA    -0.688
VRNNYSTSIRVVRMAIMWPG    5.83

Give me amyloid nucleation score for each of these substances, listed below.
1. ECVNLLR
2. SMLYFRNFRASLLPWAVDFT
3. NGRCKYLRQNIFSVLLIMRR

1. 0.471
2. -0.496
3. 0.324

###

Assay: amyloid nucleation score (Sup35N fusion, yeast selection) (log enrichment); library NNK2; higher = more nucleation; inactive = no reads after selection
For each of the sequences below, state its amyloid nucleation score.

Examples with answers:
YDCLSWRLKEERQATFGFRG    0.505
GATRALRSVTRR    3.26
DMLVCNGLFVFRASKGTIDA    -0.837

Note: attention shifts to another entry.
Recorded amyloid nucleation score of IYMDLLQNQSIR , please. -1.27

###

Test: amyloid nucleation score (Sup35N fusion, yeast selection) (log enrichment); library NNK3; higher = more nucleation; inactive = no reads after selection
Measured Property: amyloid nucleation score

The following sequences have reported results that may help.
NSFVVTCLVSVGKRGKSRWL    1.25
MVVLAVGRVKLAVYGCRKHG    inactive
GVDDSLLKMRETCSRFGLTV    inactive
HMRIGNESWVIGCQ    0.132
GFRKWKLIVD    inactive

Give amyloid nucleation score for each of the items listed below.
1. MSLVFRMSPHIQLVGWVHGR
2. PTNWLVFYFCSGYAFNSFED

["inactive", 3.31]

Quick batch: amyloid nucleation score for everything below.
1. CHSFIMIYVVMMDIS
2. SLLTDTFFIVLWTFT
3. AQSGVPRGAPGLAFDSVPHK
4. DVDRTSCGGVSVRV
5. ESVSNSYVQTKWEYQLC
6. GSWDVKLSF

0.103
inactive
inactive
inactive
inactive
inactive

###

Test: amyloid nucleation score (Sup35N fusion, yeast selection) (log enrichment); library NNK2; higher = more nucleation; inactive = no reads after selection
Measured Property: amyloid nucleation score

Example entries begin here.
APFCSIVTTDVP    -0.363
KNILGGDSFWFLLYGYHLFI    inactive
YDVNGLFTITNPAANYMKPT    -1.3
VERRVGEVRFIDAGVFGLGY    inactive
WCTLFFQCRRPG    5.55

Bench note: what amyloid nucleation score did NDWLSHGR show? 4.31

###

Test: amyloid nucleation score (Sup35N fusion, yeast selection) (log enrichment); library NNK2; higher = more nucleation; inactive = no reads after selection
Measured Property: amyloid nucleation score
One number for each entry.

These solved cases illustrate the format of a correct answer.
FLNYVGDGIIEI    -0.835
SLSFIGQIQSIITNRLNSGV    5.88

May I ask what amyloid nucleation score has been recorded for SWYILILGFRGKIIYPFRLG ? -1.03

###

Experiment: amyloid nucleation score (Sup35N fusion, yeast selection) (log enrichment); library NNK2; higher = more nucleation; inactive = no reads after selection
Measured Property: amyloid nucleation score

DSFFAEMDNLNSGRTPFKGT    inactive
ATYIGRSNVSRWVVRAMSSS    5.25
GMWFLRLSSFTCI    5.72
MSFYFNFIYYFYSYFTFEWF    inactive
WVNSCVPGLARPNSLFFNRS    -0.491
DYSFGMSCLEDIFREHEILG    -0.879

Please give amyloid nucleation score for each item listed below.
1. LCSRSYGFRFYFSSGAQSVR
2. VCVIISLHRV
3. VLYYTPRLSVERMGFHNMIY
4. CWDRFTYEYLSFYSLISRV
5. LGFAMWFTPRFCFTVYNSYD
6. CWFPWSSYLRNMFELPKTWL
7. LRRTTGYSKLTCLTHG
8. IWSYLRSSASWPMNASNTSA

1. 0.541
2. 4.99
3. -0.46
4. inactive
5. -0.422
6. 0.529
7. 4.34
8. 0.905

###

Test: amyloid nucleation score (Sup35N fusion, yeast selection) (log enrichment); library NNK1; higher = more nucleation; inactive = no reads after selection
Record True whenever amyloid nucleation score is at 0.8 or higher; record False when lower.

The examples below pair each entry with its known result.
SELRSWFL    False
FYHKTFVYKEGLNGAALLGM    False
NIINLHYKYLVADVWGLKMF    False
SNYDIWRPILSRWSDREGWV    True
QQRLWRNAWTDMARKVSTSR    False

Determine whether measured amyloid nucleation score meets or exceeds 0.8 for VAADMEARYIFCYIINVDAR True

Okay, and FLLDMV ? False
